Entries and their CC50 (50% cytotoxicity concentration, hemolysis) values follow.
- Tested on: porcine RBCs
- Type: cell-based
- test.conditions: red cells of porcine, 1 h
- Procedure: Hemolytic activity was measured according to the methods described in Jingdan, with some modifications. Briefly, serial dilutions of SLPs were added to 200 uL of a 1% suspension of porcine RBCs in PBS, followed by incubation for 1 h at 37 °C. […] Fig 3 Hemolytic activity of lipopeptides. […] Pictures were taken after collecting a portion of the supernatant for quantification of hemolysis. […] Hemolysis (measured at OD540) is shown as a function of SLP concentration. […]
Square brackets hold non-standard residues; d marks the D form. Peptide text beside a SMILES is read from it. * marks the point of attachment. X1 = CCCCCCCc1ccc(-c2ccc(C(=O)*)cc2)cc1; Palmitoyl = CCCCCCCCCCCCCCCC(=O)*
Give the value in µg/mL but do not write µg/mL after it.

Example entries begin here.
{"molecule": "CCCCCCCc1ccc(-c2ccc(C(=O)N[C@@H](CCC(=O)O)C(=O)N[C@H](C(=O)N[C@H](CC(C)C)C(=O)N[C@@H](CC(=O)O)C(=O)N[C@H](CC(C)C)C(N)=O)C(C)C)cc2)cc1 [SLP10] (X1-EV[dL]D[dL]-NH2)", "endpoint.unit": "µg/mL", "recorded.measurement": 82.8}
{"molecule": "CCCCCCCCCCCCCCCC(=O)N[C@@H](CCC(=O)O)C(=O)N[C@H](C(=O)N[C@H](CC(C)C)C(=O)N[C@@H](CC(=O)O)C(=O)N[C@H](CC(C)C)C(N)=O)C(C)C [SLP3] (Palmitoyl-EV[dL]D[dL]-NH2)", "endpoint.unit": "µg/mL", "recorded.measurement": 69.7}
{"molecule": "CCCCCCCCCCCCCCCC(=O)N[C@@H](CCC(=O)O)C(=O)N[C@H](C(=O)N[C@@H](CC(C)C)C(=O)N[C@@H](CC(=O)O)C(=O)N[C@@H](CC(C)C)C(N)=O)C(C)C [SLP7] (Palmitoyl-EVLDL-NH2)", "endpoint.unit": "µg/mL", "recorded.measurement": 274.1}
{"molecule": "CCCCCCCCCCCCCCCC(=O)N[C@@H](CCC(=O)O)C(=O)N[C@H](C(=O)N[C@H](CC(C)C)C(=O)N[C@H](CC(C)C)C(=O)N[C@@H](CC(=O)O)C(N)=O)C(C)C [SLP8] (Palmitoyl-EV[dL][dL]D-NH2)", "endpoint.unit": "µg/mL", "recorded.measurement": 217.5}
{"molecule": "CCCCCCCCCCCCCCCC(=O)N[C@@H](CCC(=O)O)C(=O)N[C@H](C(=O)N[C@H](CC(C)C)C(=O)N[C@@H](C)C(=O)N[C@@H](CC(=O)O)C(=O)N[C@H](CC(C)C)C(=O)N[C@H](C(N)=O)C(C)C)C(C)C [SLP1] (Palmitoyl-EV[dL]AD[dL]V-NH2)", "endpoint.unit": "µg/mL", "recorded.measurement": 52.6}
{"molecule": "CCCCCCCCCCCCCCCC(=O)N[C@@H](CCC(=O)O)C(=O)N[C@H](C(=O)N[C@H](CC(C)C)C(=O)N[C@@H](CC(=O)O)C(=O)N[C@H](CC(C)C)C(=O)O)C(C)C [SLP5] (Palmitoyl-EV[dL]D[dL]-OH)", "endpoint.unit": "µg/mL", "recorded.measurement": 847.2}
{"molecule": "CCCCCCCCCCCCCCCC(=O)N[C@@H](CCC(=O)O)C(=O)N[C@H](C(=O)N[C@H](CC(C)C)C(=O)N[C@@H](CC(=O)O)C(=O)N[C@H](CC(C)C)C(=O)N[C@H](C(N)=O)C(C)C)C(C)C [SLP2] (Palmitoyl-EV[dL]D[dL]V-NH2)", "endpoint.unit": "µg/mL", "recorded.measurement": 33.0}
{"molecule": "CCCCCCCCCCCCCCCC(=O)N[C@@H](CCC(=O)O)C(=O)N[C@@H](CC(=O)O)C(=O)N[C@H](C(=O)N[C@H](CC(C)C)C(=O)N[C@H](CC(C)C)C(N)=O)C(C)C [SLP9] (Palmitoyl-EDV[dL][dL]-NH2)", "endpoint.unit": "µg/mL", "recorded.measurement": 52.2}
{"molecule": "CCCCCCCCCCCCCCCC(=O)N[C@@H](CCCCN)C(=O)N[C@H](C(=O)N[C@H](CC(C)C)C(=O)N[C@@H](CCCCN)C(=O)N[C@H](CC(C)C)C(N)=O)C(C)C [SLP6] (Palmitoyl-KV[dL]K[dL]-NH2)", "endpoint.unit": "µg/mL", "recorded.measurement": 12.6}

We next turn to a different molecule, shown below.
The molecule listed as CCCCCCCCCCCCCCCC(=O)N[C@@H](CCC(=O)O)C(=O)N[C@H](C(=O)N[C@H](CC(C)C)C(=O)N[C@H](CC(C)C)C(N)=O)C(C)C [SLP4] (Palmitoyl-EV[dL][dL]-NH2) shows CC50 (50% cytotoxicity concentration, hemolysis) equal to 12.9
